Each entry below carries its reported pKd.
- studySystem: T1, D1 domain of human IL-2Rγ extracellular domain expressed with a C-terminal myc-myc-hexahistidine tag (human)
- T1 construct: also called human IL2Rγ domain 1
- T1 chain: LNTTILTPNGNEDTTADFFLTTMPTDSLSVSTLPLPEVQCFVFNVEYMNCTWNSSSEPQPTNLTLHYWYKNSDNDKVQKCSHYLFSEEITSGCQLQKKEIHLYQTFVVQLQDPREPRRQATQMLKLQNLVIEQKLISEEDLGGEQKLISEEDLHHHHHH
- measurementDescription: SPR, mAb captured on anti-hFc, 37 C
Quick note: pKd values are minus log10 of concentrations in mol/L.

Examples with answers:
H4H12889P (antibody, human IgG4 S228P, kappa, V domains shown, human IgG4; also called REGN7257) VH: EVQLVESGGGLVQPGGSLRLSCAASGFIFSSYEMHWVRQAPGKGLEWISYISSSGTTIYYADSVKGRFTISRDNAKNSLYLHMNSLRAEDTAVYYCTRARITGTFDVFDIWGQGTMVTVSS VL: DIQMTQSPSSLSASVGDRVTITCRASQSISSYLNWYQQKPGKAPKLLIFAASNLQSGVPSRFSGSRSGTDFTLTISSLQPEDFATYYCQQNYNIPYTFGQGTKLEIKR: 7.70
H4H12871P (antibody, human IgG4 S228P, kappa, V domains shown, human IgG4; also called REGN9434) VH: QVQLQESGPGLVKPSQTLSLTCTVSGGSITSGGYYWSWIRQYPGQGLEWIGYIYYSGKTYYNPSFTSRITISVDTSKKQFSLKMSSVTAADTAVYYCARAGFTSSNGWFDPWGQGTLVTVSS VL: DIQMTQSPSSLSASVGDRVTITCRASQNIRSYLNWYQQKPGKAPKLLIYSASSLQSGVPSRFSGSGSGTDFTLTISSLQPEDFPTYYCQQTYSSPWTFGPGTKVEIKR: 7.67

Consider the record given below.
Please give the documented pKd of H4H12884P (antibody, human IgG4 S228P, kappa, V domains shown, human IgG4) VH: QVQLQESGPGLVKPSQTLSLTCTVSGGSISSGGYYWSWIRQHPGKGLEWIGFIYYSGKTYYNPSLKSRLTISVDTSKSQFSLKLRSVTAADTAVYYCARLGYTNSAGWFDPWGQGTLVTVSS VL: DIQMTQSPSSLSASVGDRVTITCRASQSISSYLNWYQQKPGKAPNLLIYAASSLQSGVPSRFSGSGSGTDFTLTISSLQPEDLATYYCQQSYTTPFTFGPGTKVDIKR
7.48
